Values from paper PMC3953333

Target: T1, nuclear SREBP-1c (nSREBP-1c) (rat, UniProt P56720-1 1-456)
T1 sequence: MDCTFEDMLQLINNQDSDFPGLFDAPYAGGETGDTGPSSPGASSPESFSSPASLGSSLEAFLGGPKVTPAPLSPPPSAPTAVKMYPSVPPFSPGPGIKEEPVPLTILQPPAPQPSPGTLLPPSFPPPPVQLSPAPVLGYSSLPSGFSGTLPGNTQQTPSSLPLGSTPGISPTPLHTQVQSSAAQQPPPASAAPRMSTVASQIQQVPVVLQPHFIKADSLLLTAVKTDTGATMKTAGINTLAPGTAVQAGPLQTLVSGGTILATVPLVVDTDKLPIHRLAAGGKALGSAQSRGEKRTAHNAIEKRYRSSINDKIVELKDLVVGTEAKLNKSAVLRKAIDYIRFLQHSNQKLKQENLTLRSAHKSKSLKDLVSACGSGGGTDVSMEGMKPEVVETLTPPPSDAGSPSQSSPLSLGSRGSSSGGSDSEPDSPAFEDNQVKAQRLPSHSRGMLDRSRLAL
Assay: EMSA; EMSA with DIG-labeled annealed oligonucleotides (Roche DIG Gel Shift Kit, 2nd Generation) and TNT T7 in vitro-translated proteins; buffer, salt, pH and temperature not stated (ref 19)
Settings: protein: ivt; chain copies: 2; label: DIG end-label; 5' overhangs 4 nt (AGCT / TCGA)
Property label: binding result

[[record]]
binder = "rTPO IVmut (dsDNA) DNA 1: AGCTATACTGTGTTACTTACCATA DNA 2: TCGATATGGTAAGTAACACAGTAT"
property_label = "binding result"
observed_measurement = "no binding"

[[record]]
binder = "rTPO III mut4 (dsDNA) DNA 1: AGCTGATAAGATTCAAGTCAGCAGAATACT DNA 2: TCGAAGTATTCTGCTGACTTGAATCTTATC"
property_label = "binding result"
observed_measurement = "binds"

[[record]]
binder = "rTPO III mut1 (dsDNA) DNA 1: AGCTGATAATCAGAAAGTCAGCAGTTCTAG DNA 2: TCGACTAGAACTGCTGACTTTCTGATTATC"
property_label = "binding result"
observed_measurement = "binds"

[[record]]
binder = "rTPO V (dsDNA) DNA 1: AGCTGTGGGATGTACCATAAATACCCAGG DNA 2: TCGACCTGGGTATTTATGGTACATCCCAC"
property_label = "binding result"
observed_measurement = "no binding"

